The reported numbers originate from patent US10428140B2.

Items are presented alongside their recorded hEphB2-SEAP-: absorbance at 450 nm, percentage with respect to hEphA4-SEAP-His as 100%.
# testedOn: T1, human EphB2 (Homo sapiens, UniProt P29323)
# T1 construct: a protein of the extracellular region of each human Eph receptor fused with the SEAP protein and the His tag; made in house; host or cells: Expi293F cells
# T1 sequence (P29323 19-543 limits assumed): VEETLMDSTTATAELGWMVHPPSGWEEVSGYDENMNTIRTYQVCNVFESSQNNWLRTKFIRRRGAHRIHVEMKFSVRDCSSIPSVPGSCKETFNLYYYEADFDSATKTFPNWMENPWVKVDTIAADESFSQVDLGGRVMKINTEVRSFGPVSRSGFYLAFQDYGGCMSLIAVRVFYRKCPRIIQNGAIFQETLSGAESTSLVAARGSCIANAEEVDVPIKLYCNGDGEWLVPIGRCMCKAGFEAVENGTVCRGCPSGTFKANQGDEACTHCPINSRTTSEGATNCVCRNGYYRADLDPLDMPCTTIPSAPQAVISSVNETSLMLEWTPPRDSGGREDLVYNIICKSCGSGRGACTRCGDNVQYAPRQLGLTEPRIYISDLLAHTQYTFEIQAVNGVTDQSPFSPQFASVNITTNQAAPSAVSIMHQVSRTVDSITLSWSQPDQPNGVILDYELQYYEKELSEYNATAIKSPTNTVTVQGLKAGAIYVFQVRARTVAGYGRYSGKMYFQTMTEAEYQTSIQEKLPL
# assayExplanation: Selectivity ELISA of humanized antibodies for human Eph receptor
# Assay type: binding
# conditionInfo: coated protein 1 nM
Kindly answer with a numeric value in %, unit omitted.

The cases that follow already have their hEphB2-SEAP-: absorbance at 450 nm, percentage with respect to hEphA4-SEAP-His as 100% on record.
158 (antibody, V domains shown, synthetic humanized antibody heavy chain variable region sequence; synthetic humanized antibody light chain variable region sequence) VH: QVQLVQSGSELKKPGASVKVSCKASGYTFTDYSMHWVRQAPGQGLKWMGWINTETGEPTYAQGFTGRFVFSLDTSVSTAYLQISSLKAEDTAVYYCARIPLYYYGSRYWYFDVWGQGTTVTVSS VL: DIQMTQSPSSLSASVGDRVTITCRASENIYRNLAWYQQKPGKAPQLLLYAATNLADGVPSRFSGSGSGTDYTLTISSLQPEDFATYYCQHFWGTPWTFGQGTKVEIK; 6.3
138 (antibody, V domains shown, synthetic humanized antibody heavy chain variable region sequence; synthetic humanized antibody light chain variable region sequence) VH: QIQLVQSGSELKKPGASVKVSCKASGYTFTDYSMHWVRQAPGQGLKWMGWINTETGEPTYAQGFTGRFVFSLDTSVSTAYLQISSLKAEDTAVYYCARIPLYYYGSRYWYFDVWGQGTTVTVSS VL: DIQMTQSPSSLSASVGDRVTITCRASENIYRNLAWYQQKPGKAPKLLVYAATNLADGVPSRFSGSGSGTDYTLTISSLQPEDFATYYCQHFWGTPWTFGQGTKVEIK; 5.2
154 (antibody, V domains shown, synthetic humanized antibody heavy chain variable region sequence; synthetic humanized antibody light chain variable region sequence) VH: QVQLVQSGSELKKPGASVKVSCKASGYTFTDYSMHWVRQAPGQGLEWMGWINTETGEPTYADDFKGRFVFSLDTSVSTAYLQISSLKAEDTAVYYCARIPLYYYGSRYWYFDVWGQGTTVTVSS VL: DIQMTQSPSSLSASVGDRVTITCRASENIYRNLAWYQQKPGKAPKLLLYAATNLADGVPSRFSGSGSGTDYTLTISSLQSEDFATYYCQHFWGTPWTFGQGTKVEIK; 6.2

Then there is this molecule:
If you can, please state the reported hEphB2-SEAP-: absorbance at 450 nm, percentage with respect to hEphA4-SEAP-His as 100% value of 135 (antibody, V domains shown, synthetic humanized antibody heavy chain variable region sequence; synthetic humanized antibody light chain variable region sequence) VH: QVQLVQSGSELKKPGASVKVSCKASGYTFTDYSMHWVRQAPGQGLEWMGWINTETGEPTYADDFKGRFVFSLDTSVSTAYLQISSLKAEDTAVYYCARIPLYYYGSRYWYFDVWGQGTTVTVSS VL: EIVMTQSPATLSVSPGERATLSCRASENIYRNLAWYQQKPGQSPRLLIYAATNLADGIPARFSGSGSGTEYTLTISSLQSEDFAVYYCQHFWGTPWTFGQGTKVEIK . 5.0
